Assay: Acute toxicity assay in mice
Settings: mouse, in vivo, oral, mice, expected from preliminary data
Method: Finally, acute toxicity of representative compounds was conducted in mice to preliminarily evaluate the risk of target compounds to mammals. […]. […]. After the compound was administered, the latency of death was observed and recorded over a span of 14 days. The experimental protocols were evaluated and approved by the ethics committee of the Shenyang Pharmaceutical University.

>  <COMPOUND>
O=c1ccc2ccc(OCc3cn([C@@H]4O[C@H](CO)[C@@H](O)[C@H](O)[C@H]4O)nn3)cc2o1 [Compound 10a]

>  <LD50 at 14 days>
> 1500 mg/kg

$$$$
>  <COMPOUND>
O=c1ccc2ccc(OCc3cn([C@@H]4O[C@H](CO)[C@@H](O)[C@H](O)[C@@H]4O)nn3)cc2o1 [Compound 10c]

>  <LD50 at 14 days>
> 1500 mg/kg

$$$$

Recorded values, source paper PMC9458059.
